test: Solubility in aqueous buffers, SGF, FaSSIF and FeSSIF (Example 15); type: physicochemical; details: fed-state simulated intestinal fluid (FeSSIF), 20 °C, fessif, thermodynamic from solid, FeSSIF; ~20-25° C., ~24 hours; read-out: Measured Conc.
experimentalReadout: solubility thermodynamic

compound	experimentalReadout	assayValue
CC(C)(O)c1cnn2c(-c3ccc(F)c(-c4c(F)cccc4C#N)c3)cnc2n1 [Free Base Polymorphic Form A]	solubility thermodynamic	9.63 µg/mL

* * *

assay: Solubility in aqueous buffers, SGF, FaSSIF and FeSSIF (Example 15); type: physicochemical; conditions: FeSSIF, 20 °C, fessif, thermodynamic from solid, FeSSIF; ~20-25° C., ~24 hours; read-out: Measured Conc.

compound	solubility thermodynamic (µg/mL)
CC(C)(O)c1cnn2c(-c3ccc(F)c(-c4c(F)cccc4C#N)c3)cnc2n1 [Phosphate Polymorphic Form A]	50.7

* * *

test: Preliminary (estimated) solubility study of TPA023B Phosphate Form A (30.3, Example 34); type: physicochemical; conditions: THF, organic solvent or mixture, thermodynamic from solid, THF; estimated by visual observation; read-out: Solubility
experimentalReadout: solubility (mg/mL)

molecule	assayValue
CC(C)(O)c1cnn2c(-c3ccc(F)c(-c4c(F)cccc4C#N)c3)cnc2n1 [Phosphate Polymorphic Form A]	28

* * *

assay: Solubility in aqueous buffers, SGF, FaSSIF and FeSSIF (Example 15); format: physicochemical; conditions: SGF, 20 °C, simulated gastric fluid, thermodynamic from solid, SGF; ~20-25° C., ~24 hours; read-out: Measured Conc.

compound	solubility thermodynamic (µg/mL)
CC(C)(O)c1cnn2c(-c3ccc(F)c(-c4c(F)cccc4C#N)c3)cnc2n1 [Phosphate Polymorphic Form A]	3.85

* * *

Assay: Preliminary (estimated) solubility study of TPA023B Phosphate Form A (30.3, Example 34)
Type: physicochemical
Conditions: DCM, organic solvent or mixture, thermodynamic from solid, DCM; estimated by visual observation; read-out: Solubility
Experimental: Then the mixture was agitated in a shaker block for at least 30 mins. Additional solvent was added in a stepwise manner until all solids were dissolved. The dissolution was checked by visual observation and the amount of solvent required to dissolve all the solids was recorded.

compound	solubility [µg/mL]
CC(C)(O)c1cnn2c(-c3ccc(F)c(-c4c(F)cccc4C#N)c3)cnc2n1 [Phosphate Polymorphic Form A]	2000

* * *

assay: Preliminary (estimated) solubility study of TPA023B Phosphate Form A (30.3, Example 34); assay type: physicochemical; settings: DMSO, organic solvent or mixture, thermodynamic from solid, DMSO; estimated by visual observation; read-out: Solubility

molecule	solubility [mg/mL]
CC(C)(O)c1cnn2c(-c3ccc(F)c(-c4c(F)cccc4C#N)c3)cnc2n1 [Phosphate Polymorphic Form A]	93

* * *

assay: Preliminary (estimated) solubility study of TPA023B Phosphate Form A (30.3, Example 34); type: physicochemical; details: EA, organic solvent or mixture, thermodynamic from solid, EA; estimated by visual observation; read-out: Solubility

compound	solubility
CC(C)(O)c1cnn2c(-c3ccc(F)c(-c4c(F)cccc4C#N)c3)cnc2n1 [Phosphate Polymorphic Form A]	< 2000 µg/mL

* * *

assay: Preliminary (estimated) solubility study of TPA023B Phosphate Form A (30.3, Example 34); format: physicochemical; conditions: ACN, organic solvent or mixture, thermodynamic from solid, ACN; estimated by visual observation; read-out: Solubility

compound	solubility
CC(C)(O)c1cnn2c(-c3ccc(F)c(-c4c(F)cccc4C#N)c3)cnc2n1 [Phosphate Polymorphic Form A]	< 2000 µg/mL
